Taken from PubChem BioAssay (EPA / NIEHS).

experiment: ATG_GLI_CIS: Attagene CIS-FACTORIAL HepG2 Assay for human Zinc Finger Protein GLI1 (AID 2282945); settings: HepG2, Attagene cis-factorial reporter mRNA, GLI element; actives raise or lower the signal
Activity calls are given as the source filed them. Rule for the calls: active = hit-call score of the fitted dose curve at least 0.9, where 1 is the maximum; inactive = score below 0.9.
Please state which outcome applies, choosing from class 1 (active), class 0 (inactive)

Data request: Query: recorded result category for CCN(C(=O)c1cc(C)cc(OC[C@H](C)Nc2ccncc2)c1)C(C)C in this test
Data returned: class 0

Data request: Query: recorded result category for CCCCCCCCCCCCc1ccccc1 in this test
Data returned: class 0

Data request: Query: recorded result category for O=C(O)c1cccc(Oc2ccccc2)c1 in this test
Data returned: class 0

Data request: Query: recorded result category for CCCCCCCCCCCCCCCO in this test
Data returned: class 0

Data request: Query: recorded result category for Fc1ccccc1[C@@H](F)COC1CCC(Nc2ncnc3[nH]ncc23)CC1 (stereo not given in full) in this test
Data returned: class 0

Data request: Query: recorded result category for CCCCCCCCO in this test
Data returned: class 0

Data request: Query: recorded result category for Clc1nc(Cl)c(Cl)c(Cl)c1Cl in this test
Data returned: class 0

Data request: Query: recorded result category for CCNc1ccccc1 in this test
Data returned: class 0

Data request: Query: recorded result category for COc1cccc(-c2ccc(/C=C\CN3CCCCCC3)cc2Cl)c1 in this test
Data returned: class 0

Data request: Query: recorded result category for O=P(OC(CCl)CCl)(OC(CCl)CCl)OC(CCl)CCl in this test
Data returned: class 1

Data request: Query: recorded result category for CC(C)CCCCCCOC(=O)c1ccc(C(=O)OCCCCCCC(C)C)c(C(=O)OCCCCCCC(C)C)c1 in this test
Data returned: class 0

Data request: Query: recorded result category for CCCCCCc1ccc(O)cc1O in this test
Data returned: class 0

Data request: Query: recorded result category for CC(=O)OC[C@H]1O[C@@](COC(C)=O)(O[C@H]2O[C@H](COC(C)=O)[C@@H](OC(C)=O)[C@H](OC(C)=O)[C@H]2OC(C)=O)[C@@H](OC(C)=O)[C@@H]1OC(C)=O in this test
Data returned: class 0

Data request: Query: recorded result category for CCCCC(CC)COC(=O)c1ccc(C(=O)OCC(CC)CCCC)cc1 (stereo not given) in this test
Data returned: class 0

Data request: Query: recorded result category for Cc1c(-c2cccnc2)c2ccccc2n1CCCCC(=O)O in this test
Data returned: class 0

Data request: Query: recorded result category for CC(=O)OCCC(C)C in this test
Data returned: class 0

Data request: Query: recorded result category for O=C(O)CC(O)C(=O)O (stereo not given) in this test
Data returned: class 0

Data request: Query: recorded result category for CC(C)CCO in this test
Data returned: class 0

Data request: Query: recorded result category for CN(C)c1ccc(N=NS(=O)(=O)O)cc1 in this test
Data returned: class 0

Data request: Query: recorded result category for O=C1CCC(N2C(=O)c3ccccc3C2=O)C(=O)N1 (stereo not given) in this test
Data returned: class 0

Data request: Query: recorded result category for CCCCC(CC)COC(=O)CCCCCCCCC(=O)OCC(CC)CCCC (stereo not given) in this test
Data returned: class 0

Data request: Query: recorded result category for CC(C)=CCCC(C)CCO (stereo not given) in this test
Data returned: class 0

Data request: Query: recorded result category for CC(C)(O)c1coc(S(=O)(=O)NC(=O)Nc2c3c(cc4c2CCC4)CCC3)c1 in this test
Data returned: class 0

Data request: Query: recorded result category for O=C(OC[C@H]1O[C@@H](OC(=O)c2cc(O)c(O)c(OC(=O)c3cc(O)c(O)c(O)c3)c2)[C@H](OC(=O)c2cc(O)c(O)c(OC(=O)c3cc(O)c(O)c(O)c3)c2)[C@@H](OC(=O)c2cc(O)c(O)c(OC(=O)c3cc(O)c(O)c(O)c3)c2)[C@@H]1OC(=O)c1cc(O)c(O)c(OC(=O)c2cc(O)c(O)c(O)c2)c1)c1cc(O)c(O)c(OC(=O)c2cc(O)c(O)c(O)c2)c1 in this test
Data returned: class 0

Data request: Query: recorded result category for CCOCCO in this test
Data returned: class 0

Data request: Query: recorded result category for CC(C)CCCCCCCOC(=O)CCCCC(=O)OCCCCCCCC(C)C in this test
Data returned: class 0

Data request: Query: recorded result category for O=C(O)c1cccc(N(Cc2cccnc2)c2ccc(OC(F)F)c(OC(F)F)c2)c1 in this test
Data returned: class 0

Data request: Query: recorded result category for Nc1ccc(Nc2ccccc2)cc1 in this test
Data returned: class 0

Data request: Query: recorded result category for O=C(O)c1cc(N=Nc2ccc(S(=O)(=O)Nc3ccccn3)cc2)ccc1O in this test
Data returned: class 0

Data request: Query: recorded result category for O=c1n(CC2CO2)c(=O)n(CC2CO2)c(=O)n1CC1CO1 (stereo not given) in this test
Data returned: class 0

Data request: Query: recorded result category for CCOC(=O)c1ccc(C2CCC(NC[C@H](O)COc3ccc(O)c(NS(C)(=O)=O)c3)CC2)cc1 (stereo not given in full) in this test
Data returned: class 1

Data request: Query: recorded result category for Cc1ccc(C)c(O)c1 in this test
Data returned: class 0

Data request: Query: recorded result category for Oc1ccc2c(c1)-c1ccccc1C2 in this test
Data returned: class 0

Data request: Query: recorded result category for Cc1ccc(S(=O)(=O)O)cc1C in this test
Data returned: class 0

Data request: Query: recorded result category for C[C@](N)(Cc1ccc(O)c(O)c1)C(=O)O in this test
Data returned: class 0

Data request: Query: recorded result category for CCOCCOCCOCCO in this test
Data returned: class 0

Data request: Query: recorded result category for CCc1cc(SCc2sc(-c3ccc(C(F)(F)F)cc3)nc2CN2CCN(c3ccc(OC)cc3)CC2)ccc1OCC(=O)O in this test
Data returned: class 0

Data request: Query: recorded result category for Nc1nc2ncc(CNc3ccc(C(=O)N[C@@H](CCC(=O)O)C(=O)O)cc3)nc2c(=O)[nH]1 in this test
Data returned: class 0

Data request: Query: recorded result category for O=C(O)CCN(C1(C(=O)NO)CCCC1)S(=O)(=O)c1ccc(Oc2ccc(F)cc2)cc1 in this test
Data returned: class 0

Data request: Query: recorded result category for C=CC(=C)CCC=C(C)C in this test
Data returned: class 0

Data request: Query: recorded result category for CNCc1ccc(NC(=O)c2c[nH]c3c2C(=O)CCC3)cc1 in this test
Data returned: class 0

Data request: Query: recorded result category for CCn1nc(Cc2ccccc2)cc1C1CCN(C[C@H]2C[C@H](N(C)[C@@H](C(=O)O)C(C)C)C[C@@H]2c2cccc(F)c2)CC1 in this test
Data returned: class 0

Data request: Query: recorded result category for CCOC(=O)COc1ccc2c(c1)CC(NCC(O)c1cccc(Cl)c1)CC2 (stereo not given) in this test
Data returned: class 0

Data request: Query: recorded result category for CC[C@H]1CC[C@H](NCc2cc3c(cc2OC)[C@H]2C[C@H]2C(=O)N3C)[C@H](c2ccccc2)N1 in this test
Data returned: class 0

Data request: Query: recorded result category for CCCN(C1CCN(C(=O)C2CCNCC2)CC1)[C@@H]1CCc2ccc(OC)cc2C1 in this test
Data returned: class 1
